Recorded measurements of percent of parent, one per entry
B1: unnamed (parent)
chain 1: DYMGWMDF
chain 2: MDVVDSLLVNGSNITPPCELGLENETLFCLDQPRPSKEWQPAVQILLYSLIFLLSVLGNTLVITVLIRNKRMRTVTNIFLLSLAVSDLMLCLFCMPFNLIPNLLKDFIFGSAVCKTTTYFMGTSVSVSTFNLVAISLERYGAICKPLQSRVWQTKSHALKVIAATWCLSFTIMTPYPIYSNLVPFTKNNNQTANMCRFLLPNDVMQQSWHTFLLLILFLIPGIVMMVAYGLISLELYQGIKFEASQKKSAKERKPSTTSSGKYEDSDGCYLQKTRPPRKLELRQLSTGSSSRANRIRSNSSAANLMAKKRVIRMLIVIVVLFFLCWMPIFSANAWRAYDTASAERRLSGTPISFILLLSYTSSCVNPIIYCFMNKRFRLGFMATFPCCPNPGPPGARGEVGEEEEGGTTGASLSRFSYSHMSASVPPQ

# Variants of: B1
# PROTOCOL TEXT: radiolabeled ligand-binding assay (competition with unlabeled CCK-8)
# ASSAY CONDITIONS: upper plateau of the fitted competition curve at the lowest CCK-8 concentration (log [CCK-8] = -12), read off a plot

For the variant chain 2 H210A , what percent of parent is on record?
70 % WT

What value of measured percent of parent is listed for chain 2 M121A ?
230 % WT
